# pIC50 per record follows
- subjectOfTest: WT EGFR (Wild-Type EGFR) (Homo sapiens, UniProt P00533)
- Sequence (P00533 25-1210): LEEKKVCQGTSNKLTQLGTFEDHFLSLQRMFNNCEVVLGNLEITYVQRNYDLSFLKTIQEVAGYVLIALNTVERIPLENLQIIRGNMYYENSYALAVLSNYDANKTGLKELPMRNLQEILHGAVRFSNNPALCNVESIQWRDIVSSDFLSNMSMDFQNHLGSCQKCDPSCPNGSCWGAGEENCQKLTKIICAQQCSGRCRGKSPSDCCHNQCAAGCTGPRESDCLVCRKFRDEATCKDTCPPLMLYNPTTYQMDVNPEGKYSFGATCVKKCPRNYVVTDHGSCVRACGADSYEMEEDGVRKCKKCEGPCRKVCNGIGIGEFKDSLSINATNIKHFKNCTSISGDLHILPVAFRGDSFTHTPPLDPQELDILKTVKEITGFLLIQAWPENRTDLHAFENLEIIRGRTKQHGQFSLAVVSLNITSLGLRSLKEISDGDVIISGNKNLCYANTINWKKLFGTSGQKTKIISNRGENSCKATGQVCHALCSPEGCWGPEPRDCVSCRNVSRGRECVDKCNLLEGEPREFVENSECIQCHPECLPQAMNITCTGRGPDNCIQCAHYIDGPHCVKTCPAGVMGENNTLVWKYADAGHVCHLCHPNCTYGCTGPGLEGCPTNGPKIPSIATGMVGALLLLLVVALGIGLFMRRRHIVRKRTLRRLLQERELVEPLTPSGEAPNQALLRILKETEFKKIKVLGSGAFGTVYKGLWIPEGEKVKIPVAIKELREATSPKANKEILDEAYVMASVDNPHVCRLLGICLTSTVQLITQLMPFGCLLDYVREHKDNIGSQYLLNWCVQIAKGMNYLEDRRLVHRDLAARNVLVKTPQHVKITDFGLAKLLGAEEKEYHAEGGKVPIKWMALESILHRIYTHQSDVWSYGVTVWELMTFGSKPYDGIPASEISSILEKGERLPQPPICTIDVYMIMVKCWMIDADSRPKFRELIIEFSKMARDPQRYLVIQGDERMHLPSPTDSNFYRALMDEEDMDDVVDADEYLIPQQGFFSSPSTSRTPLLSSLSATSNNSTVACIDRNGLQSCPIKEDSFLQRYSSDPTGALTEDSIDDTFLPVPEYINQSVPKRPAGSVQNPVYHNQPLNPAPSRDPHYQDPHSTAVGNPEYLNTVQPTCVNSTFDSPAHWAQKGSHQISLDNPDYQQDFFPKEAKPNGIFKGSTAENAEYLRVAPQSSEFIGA
Where a name gives a salt, the structure may show the parent alone.
Just the number, please; pIC50 means minus log10 of the concentration in mol/L.

| compound | subjectOfTest | pIC50 |
| --- | --- | --- |
| C=CC(=O)Nc1cc(Nc2nccc(C(=O)c3ccc(N4CCN(C)CC4)cc3)n2)c(OC)cc1N(C)CCN(C)C [EGFR_3365_62, formate] | WT EGFR (Wild-Type EGFR) (Homo sapiens, UniProt P00533) | 6.89 |
| C=CC(=O)Nc1cc(Nc2nccc(C(=O)c3ccc(N4CCC(OC)CC4)cc3)n2)c(OC)cc1N(C)CCN(C)C | WT EGFR (Wild-Type EGFR) (Homo sapiens, UniProt P00533) | 7.08 |
| C=CC(=O)Nc1cc(Nc2nccc(C(=O)c3ccc(OC)cc3OC(C)C)n2)c(OC)cc1N(C)CCN(C)C | WT EGFR (Wild-Type EGFR) (Homo sapiens, UniProt P00533) | 6.95 |

Now examine the next entry.
Query :: Please state recorded pIC50 (tested on WT EGFR (Wild-Type EGFR) (Homo sapiens, UniProt P00533)) of C=CC(=O)Nc1cc(Nc2nccc(C(=O)c3cccc(OC)c3)n2)c(OC)cc1N(C)CCN(C)C
Result :: 6.69

* * *

- System: HepG2 cells
- measurementNotes: General cytotoxicity on HepG2 cells
- Assay type: cell-based
- measurementParameters: therapeutic index, CC50 HepG2 / IC50 H1975
# TI, CC50/IC50 per record follows

Worked examples follow.
| compound | assayEndpoint | observedValue |
| --- | --- | --- |
| C=CC(=O)Nc1cc(Nc2cc(C(=O)c3ccc(N(CC)CC)cc3)ccn2)c(OC)cc1N(C)CCN(C)C | TI, CC50/IC50 | 229 |
| C=CC(=O)Nc1cc(Nc2nccc(C(=O)c3ccc(N4CCCCC4)cc3OC)n2)c(OC)cc1N(C)CCN(C)C [EGFR_3365_122] | TI, CC50/IC50 | 5710 |
| C=CC(=O)Nc1cc(Nc2nccc(C(=O)c3ccc(OCCC)cc3OC)n2)c(OC)cc1N(C)CCN(C)C [EGFR_3365_101] | TI, CC50/IC50 | 1238 |

Query :: Which value of TI, CC50/IC50 has been reported for C=CC(=O)Nc1cc(Nc2nccc(C(=O)c3ccc(N4CC[C@@H](O)C4)cc3)n2)c(OC)cc1N(C)CCN(C)C [EGFR_3365_113] in the records?
Result :: 10481

* * *

- subjectOfTest: DM EGFR (DoubleMutantEGFR, L828R/T790M) (Homo sapiens, UniProt P00533, L858R/T790M)
- measurementNotes: Inhibition of DM EGFR kinase activity (ADP-Glo)
- measurementParameters: inhibition of kinase activity, EGFR DM (L828R/T790M)
assayEndpoint: pIC50
Just the number, please; pIC50 means minus log10 of the concentration in mol/L.

Worked examples follow.
| compound | observedValue |
| --- | --- |
| C=CC(=O)Nc1cc(Nc2nccc(C(=O)c3ccc(OC4CCCCC4)cc3)n2)c(OC)cc1N(C)CCN(C)C [EGFR_3365_67] | 7.98 |
| C=CC(=O)Nc1cc(Nc2nccc(C(=O)c3ccc(OCCC)cc3OCCC)n2)c(OC)cc1N(C)CCN(C)C [EGFR_3365_70] | 7.83 |
| C=CC(=O)Nc1cc(Nc2nccc(C(=O)c3cccc([N+](=O)[O-])c3)n2)c(OC)cc1N(C)CCN(C)C [EGFR_3365_34] | 8.16 |

Query :: Please state recorded pIC50 (tested on DM EGFR (DoubleMutantEGFR, L828R/T790M) (Homo sapiens, UniProt P00533, L858R/T790M)) of C=CC(=O)Nc1cc(Nc2nccc(C(=O)c3ccc(OCC)cc3OCC)n2)c(OC)cc1N(C)CCN(C)C [EGFR_3365_68]
Result :: 8.04
